Target: recombinant human PDE5 (Homo sapiens, UniProt O76074)
Experiment: PDE5 inhibition, IMAP FP phosphodiesterase assay
Assay type: biochemical
Details: read-out: PDE5 inhibition IC50; 10 concentrations, each with double replicates
Reported Endpoint: IC50 (nM)
API: value field is a number in nM; no unit string.

Q: Short answer please: IC50, recombinant human PDE5 (Homo sapiens, UniProt O76074), entry CCN1C(=O)[C@@H]2Cc3c([nH]c4ccccc34)[C@@H](c3ccc(Br)s3)N2C1=O [Compound 8]
A: 160

###

Target: recombinant human PDE5 (Homo sapiens)
Assay: PDE5 inhibition, IMAP FP phosphodiesterase assay
Format: biochemical
Conditions: read-out: PDE5 % inhibition at 10 μm
Listed molecules paired with reported inhibition at 10 µM

>>> reported_result("CCCCN1C(=O)[C@@H]2Cc3c([nH]c4ccccc34)[C@@H](c3ccc(Br)s3)N2C1=O")
"92%"
>>> reported_result("CC(C)(C)N1C(=O)[C@@H]2Cc3c([nH]c4ccccc34)[C@H](c3ccc(Br)s3)N2C1=O")
"< 60%"
>>> reported_result("C=CCN1C(=O)[C@@H]2Cc3c([nH]c4ccccc34)[C@@H](c3ccc(Br)s3)N2C1=O")
"97%"
>>> reported_result("CCCCN1C(=O)[C@@H]2Cc3c([nH]c4ccccc34)[C@H](c3ccc(Br)s3)N2C1=O")
"< 60%"
>>> reported_result("C=CCN1C(=O)[C@@H]2Cc3c([nH]c4ccccc34)[C@H](c3ccc(Br)s3)N2C1=O")
"< 60%"
>>> reported_result("CCCCN1C(=O)[C@H]2Cc3c([nH]c4ccccc34)[C@@H](c3ccc(Br)s3)N2C1=O")
"99%"

Q: Short answer please: inhibition at 10 µM, recombinant human PDE5 (Homo sapiens), entry COC(=O)[C@@H]1Cc2c([nH]c3ccccc23)[C@@H](c2ccc(Br)s2)N1
A: < 60%

Q: Short answer please: inhibition at 10 µM, recombinant human PDE5 (Homo sapiens), entry CCN1CC(=O)N2[C@H](c3ccc(Br)s3)c3[nH]c4ccccc4c3C[C@H]2C1=O
A: 87%

###

Molecular target: recombinant human PDE5 (Homo sapiens)
Assay: PDE5 inhibition, IMAP FP phosphodiesterase assay
Format: biochemical
pIC50: −log10 of the molar value.
# pIC50 >= 6 gives Yes, anything below gives No

Sample answers from the record:
>>> qualitative_label("CCCCN1C(=O)[C@H]2Cc3c([nH]c4ccccc34)[C@@H](c3ccc(Br)s3)N2C1=O [Compound 9]")
"Yes"
>>> qualitative_label("CCN1CC(=O)N2[C@H](c3ccc(Br)s3)c3[nH]c4ccccc4c3C[C@@H]2C1=O [Compound 23]")
"No"
>>> qualitative_label("CC(C)(C)N1C(=O)[C@H]2Cc3c([nH]c4ccccc34)[C@@H](c3ccc(Br)s3)N2C1=O [Compound 13]")
"Yes"

Q: # check: pIC50 of CCCCN1C(=O)[C@@H]2Cc3c([nH]c4ccccc34)[C@@H](c3ccc(Br)s3)N2C1=O [Compound 12] is greater than or equal to 6
A: Yes

Q: # check: pIC50 of C=CCN1C(=O)[C@@H]2Cc3c([nH]c4ccccc34)[C@@H](c3ccc(Br)s3)N2C1=O [Compound 20] is greater than or equal to 6
A: Yes

Q: # check: pIC50 of C=CCN1C(=O)[C@H]2Cc3c([nH]c4ccccc34)[C@H](c3ccc(Br)s3)N2C1=O [Compound 18] is greater than or equal to 6
A: No

Q: # check: pIC50 of C=CCN1C(=O)[C@H]2Cc3c([nH]c4ccccc34)[C@@H](c3ccc(Br)s3)N2C1=O [Compound 17] is greater than or equal to 6
A: Yes
